# Target under test: NHERF2_2, Q15599
# Sequence (Q15599 142-238): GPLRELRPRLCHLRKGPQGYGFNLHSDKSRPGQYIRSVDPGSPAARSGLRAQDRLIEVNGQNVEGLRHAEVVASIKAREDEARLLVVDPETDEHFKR
# Measurement notes: holdup assay
# Parameters: key: below the threshold = too weak to quantify, mostly under pKd 3.1 to 4
# Reported conditions: plain residues with an end cap or a label only (N-terminal biotin on a linker: ado-ado)
Experimental endpoint: pKd

# annotated cases, reported pKd shown
YYKRPVQEWV [MMP24, Q9Y5R2] ... below the threshold
TSSMRGMDAV [RSRC2, Q7L4I2] ... below the threshold
LRSPRTPSEV [OR10G3, Q8NGC4] ... below the threshold
TPPAAKKSRI [BAZ1A, Q9NRL2] ... 3.58
DDEDRLVIEI [ZNF831, Q5JPB2] ... below the threshold
SAKVRTVTSV [RASL11B, Q9BPW5] ... below the threshold
GNSVLKSTQF [SLC22A12, Q96S37] ... 4.47
VYPNAKVELV [PDLIM4_iso2, P50479;P50479-1] ... below the threshold

pKd for EVNETDDTKM [KCNJ1, P48048] is 4.84

pKd for EALLQMESVA [CAVIN3, Q969G5] is below the threshold

pKd for MLSKQSESAI [FLVCR1, Q9Y5Y0] is below the threshold

pKd for SKSNFGSEPL [KIF17, Q9P2E2] is below the threshold

pKd for LPHGHSTTRV [NLGN4X, Q8N0W4] is 3.78

pKd for PEYLGLDVPV [ERBB2, P04626] is below the threshold

pKd for CLREWCDAFL [BANF1, O75531] is 4.48

pKd for GSGAVEMESV [AQP6, Q13520] is below the threshold

pKd for TSQESEDTYL [TBC1D10A, Q9BXI6] is 5.52

pKd for SSALYGESDL [ACTN2, P35609] is 4.35
